# Assay remarks: 14-day repeat IV dose toxicity study with toxicokinetic evaluation on Day 1 and 14 in dogs
# Assay type: in vivo, beagle dogs
# Condition notes: dog, in vivo, iv, 10 mg/kg/day, IV 10 mg/kg/day, female, Day 1, read-out: Vz
Ends that are not written are not given here.
Metric: Vd (L/kg)
Provide only the numeric value, understood in L/kg.

// recorded Vd for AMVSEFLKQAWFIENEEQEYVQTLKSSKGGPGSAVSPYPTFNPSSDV-NH2 [Peptide 1] : 0.288

----------
# Assay remarks: Clinical test in humans, three 30-min i.v. infusions 8 hours apart, plasma PK
# Assay type: in vivo
# Condition notes: human, in vivo, iv, three 30-min i.v. infusions 8 h apart, 50 μg/kg each, GM, read-out: AUC0-t1
Ends that are not written are not given here.
Metric: AUC (µg·h/mL)
Numeric answer only, unit µg·h/mL assumed.

# AUC of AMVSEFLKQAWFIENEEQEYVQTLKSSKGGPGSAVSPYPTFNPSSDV-NH2 [Peptide 1] = 0.417

----------
# Assay remarks: 14-day repeat IV dose toxicity study with toxicokinetic evaluation on Day 1 and 14 in dogs
# Format: in vivo, beagle dogs
# Condition notes: dog, in vivo, iv, 1 mg/kg/day, IV 1.0 mg/kg/day, female, Day 14, read-out: Cl
# Procedure: Peptide 1 in blood samples collected from animals used in the studies (rat and dog) has been measured by an LC-MS/MS method. Analysis of samples collected in the pharmacokinetic study in rats was performed prior to validation of the method. Prior to analysis of samples from the GLP toxicology studies, the method was validated according to GLP to ensure that it is selective, accurate, reproducible, and able to produce reliable results. […]
Ends that are not written are not given here.
Metric: clearance (mL/min/kg)
Numeric answer only, unit mL/min/kg assumed.

So, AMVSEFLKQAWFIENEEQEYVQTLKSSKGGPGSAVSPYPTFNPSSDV-NH2 [Peptide 1] ? Its clearance was 27.4

----------
# Assay remarks: 14-day repeat dose IV toxicity study with toxicokinetic evaluation on Day 1 and Day 14 in rats
# Type: in vivo, Wistar rats
# Condition notes: rat, in vivo, iv, 1 mg/kg/day, IV 1.0 mg/kg/day, male, Day 14
Ends that are not written are not given here.
Metric: clearance (mL/min/kg)
Give the number; mL/min/kg is assumed, so skip it.

// clearance value for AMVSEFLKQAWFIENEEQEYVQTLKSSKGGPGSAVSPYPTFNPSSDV-NH2 [Peptide 1] : 17.2

----------
# Assay remarks: Clinical test in humans, three 30-min i.v. infusions 8 hours apart, plasma PK
# Assay type: in vivo
# Condition notes: human, in vivo, iv, 100 ug/kg, three 30-min i.v. infusions 8 h apart, 100 μg/kg each, mean, read-out: AUC0-t3
Ends that are not written are not given here.
Metric: AUC (ng·h/mL)
Quick reminder: number only, in ng·h/mL, skip the unit.

# AUC (substance: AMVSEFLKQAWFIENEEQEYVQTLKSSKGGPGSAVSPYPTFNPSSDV-NH2 [Peptide 1] ) is 1090

----------
# Assay remarks: Clinical test in humans, three 30-min i.v. infusions 8 hours apart, plasma PK
# Format: in vivo
# Condition notes: human, in vivo, iv, 200 ug/kg, three 30-min i.v. infusions 8 h apart, 200 μg/kg each, mean, read-out: AUC0-t1
Ends that are not written are not given here.
Metric: AUC (ng·h/mL)
Give your result in ng·h/mL as a bare value.

AUC measured on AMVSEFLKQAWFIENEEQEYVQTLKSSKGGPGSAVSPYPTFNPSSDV-NH2 [Peptide 1] = 2520

----------
# Assay remarks: 14-day repeat dose IV toxicity study with toxicokinetic evaluation on Day 1 and Day 14 in rats
# Format: in vivo, Wistar rats
# Condition notes: rat, in vivo, iv, 1 mg/kg/day, IV 1.0 mg/kg/day, male, Day 14, read-out: AUC0-∞ (converted)
Ends that are not written are not given here.
Metric: AUC(0-inf) (ng·h/mL)
Numeric only. Scale: ng·h/mL

AUC(0-inf) for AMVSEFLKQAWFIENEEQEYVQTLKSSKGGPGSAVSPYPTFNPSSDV-NH2 [Peptide 1] is 967

----------
# Assay remarks: Clinical test in humans, single 30-min i.v. infusion, plasma PK
# Format: in vivo
# Condition notes: human, in vivo, iv, single 30-min i.v. infusion 50 μg/kg, GM
Ends that are not written are not given here.
Metric: Cmax

// field: Cmax; key: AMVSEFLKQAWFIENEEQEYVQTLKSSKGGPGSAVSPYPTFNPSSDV-NH2 [Peptide 1] ; value = 371 ng/mL

----------
# Assay remarks: Clinical test in humans, three 30-min i.v. infusions 8 hours apart, plasma PK
# Format: in vivo
# Condition notes: human, in vivo, iv, 50 ug/kg, three 30-min i.v. infusions 8 h apart, 50 μg/kg each, mean, read-out: AUC0-t2
Ends that are not written are not given here.
Metric: AUC (ng·h/mL)
Output spec: scalar in ng·h/mL, unitless text.

Kindly note the recorded AUC for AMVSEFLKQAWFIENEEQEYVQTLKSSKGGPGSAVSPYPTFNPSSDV-NH2 [Peptide 1] , which is 420

----------
# Assay remarks: 14-day repeat IV dose toxicity study with toxicokinetic evaluation on Day 1 and 14 in dogs
# Type: in vivo, beagle dogs
# Condition notes: dog, in vivo, iv, 1 mg/kg/day, IV 1.0 mg/kg/day, female, Day 14, read-out: Vz
Ends that are not written are not given here.
Metric: Vd
// unit must come after the numeric part

Record summary for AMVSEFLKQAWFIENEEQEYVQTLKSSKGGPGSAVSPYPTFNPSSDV-NH2 [Peptide 1] : reported Vd = 0.183 L/kg

----------
# Assay remarks: 14-day repeat IV dose toxicity study with toxicokinetic evaluation on Day 1 and 14 in dogs
# Assay type: in vivo, beagle dogs
# Condition notes: dog, in vivo, iv, 1 mg/kg/day, IV 1.0 mg/kg/day, male, Day 1, read-out: T1/2
Ends that are not written are not given here.
Metric: half-life (min)
Give the value, in units of min, as a plain number.

Lookup result for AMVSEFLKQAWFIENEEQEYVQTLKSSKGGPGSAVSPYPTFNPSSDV-NH2 [Peptide 1] ; measured half-life: 4.68

----------
# Assay remarks: Clinical test in humans, three 30-min i.v. infusions 8 hours apart, plasma PK
# Format: in vivo
# Condition notes: human, in vivo, iv, 140 ug/kg, three 30-min i.v. infusions 8 h apart, 140 μg/kg each, GM, read-out: AUC0-tau3
Ends that are not written are not given here.
Metric: AUC
Please answer using the number first and the unit second.

// recorded AUC for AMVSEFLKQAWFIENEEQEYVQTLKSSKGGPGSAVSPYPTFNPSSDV-NH2 [Peptide 1] : 1690 ng·h/mL

----------
# Assay remarks: 14-day repeat IV dose toxicity study with toxicokinetic evaluation on Day 1 and 14 in dogs
# Format: in vivo, beagle dogs
# Condition notes: dog, in vivo, iv, 10 mg/kg/day, IV 10 mg/kg/day, female, Day 14, read-out: Vz
# Protocol: Peptide 1 in blood samples collected from animals used in the studies (rat and dog) has been measured by an LC-MS/MS method. Analysis of samples collected in the pharmacokinetic study in rats was performed prior to validation of the method. Prior to analysis of samples from the GLP toxicology studies, the method was validated according to GLP to ensure that it is selective, accurate, reproducible, and able to produce reliable results. […]
Ends that are not written are not given here.
Metric: Vd (L/kg)
Please respond with the number in L/kg and leave the unit unwritten.

Value of Vd reported for the substance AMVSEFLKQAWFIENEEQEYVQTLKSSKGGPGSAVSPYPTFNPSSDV-NH2 [Peptide 1] is 0.312

----------
# Assay remarks: 14-day repeat dose IV toxicity study with toxicokinetic evaluation on Day 1 and Day 14 in rats
# Assay type: in vivo, Wistar rats
# Condition notes: rat, in vivo, iv, 10 mg/kg/day, IV 10 mg/kg/day, female, Day 1
Ends that are not written are not given here.
Metric: C0 (µg/mL)
Report the figure in µg/mL without appending any unit label.

C0 for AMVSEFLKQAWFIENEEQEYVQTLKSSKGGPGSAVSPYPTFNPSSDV-NH2 [Peptide 1] is 127

----------
# Assay remarks: Clinical test in humans, three 30-min i.v. infusions 8 hours apart, plasma PK
# Assay type: in vivo
# Condition notes: human, in vivo, iv, three 30-min i.v. infusions 8 h apart, 140 μg/kg each, mean, read-out: AUC0-tau3
Ends that are not written are not given here.
Metric: AUC (ng·h/mL)
Field: numeric (ng·h/mL). Do not append units.

Value of measured AUC for the entry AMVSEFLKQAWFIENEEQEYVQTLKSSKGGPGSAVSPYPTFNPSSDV-NH2 [Peptide 1] : 1710

----------
# Assay remarks: 14-day repeat dose IV toxicity study with toxicokinetic evaluation on Day 1 and Day 14 in rats
# Assay type: in vivo, Wistar rats
# Condition notes: rat, in vivo, iv, 1 mg/kg/day, IV 1.0 mg/kg/day, male, Day 14, read-out: Vz
Ends that are not written are not given here.
Metric: Vd

For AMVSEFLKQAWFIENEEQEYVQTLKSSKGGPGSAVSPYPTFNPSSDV-NH2 [Peptide 1] the substance record lists Vd as 0.19 L/kg

Values from patent US20250345392A1
